test: Oral bioavailability in rat at 3 mg/kg, po; format: ADME, organism-based; settings: in vivo
measurement_name: bioavailability (%)
Lab book: enter the figure in %, no units written.

Sure, the documented bioavailability for C[C@H]1O[C@@H](n2cc(-c3ccccc3)c3c(NCC(=O)NC4CC4)ncnc32)[C@H](O)[C@@H]1O is 128

====

assay: Half life at early phase in rat at 3 mg/kg, po; assay type: ADME, organism-based; design: dose 3 mg/kg, route oral; details: in vivo
measurement_name: half-life (min)
Lab book: enter the figure in min, no units written.

Sure, the documented half-life for C[C@H]1O[C@@H](n2cc(-c3ccccc3)c3c(NCC(=O)NC4CC4)ncnc32)[C@H](O)[C@@H]1O is 18
